Cited source: ChEMBL document CHEMBL1127444

molecular target: Substance-P receptor (Homo sapiens); experiment: Tested in vitro for the binding affinity towards NK1 receptor in human IM-9 cells using [125I]-labeled bolton-hunter substance P as ligand
pIC50: −log10 of the molar value.
Entries are sorted into classes by pIC50 as follows: interval 1 = under 7, interval 2 = from 7 up to 8, interval 3 = 8 and over

Study these solved cases before continuing.
>>> label_value("Clc1ccccc1CNC1C2CC3CCCC(C2)N3[C@H]1C(c1ccccc1)c1ccccc1 (stereo partly specified)")
"interval 2"
>>> label_value("COc1ccccc1CNC1C2C3CCC2CN(C3)[C@H]1C(c1ccccc1)c1ccccc1 (stereo partly specified)")
"interval 3"
>>> label_value("COc1ccccc1CNC1C2CC3CCCC2CN3[C@H]1C(c1ccccc1)c1ccccc1 (stereo partly specified)")
"interval 3"

Problem: Band for `c1ccc(CN[C@H]2C3C4CCCC3CN(C4)[C@H]2C(c2ccccc2)c2ccccc2)cc1` ?
Solution: interval 1

Problem: Band for `Clc1ccccc1CN[C@H]1C2C3CCCC2CN(C3)[C@H]1C(c1ccccc1)c1ccccc1` ?
Solution: interval 2

Problem: Band for COc1ccccc1CNC1C2CC3CCC(C2)N3[C@H]1C(c1ccccc1)c1ccccc1 (stereo partly specified) ?
Solution: interval 3

Problem: Band for FC(F)(F)c1ccccc1CNC1C2CC3CCCC(C2)N3[C@H]1C(c1ccccc1)c1ccccc1 (stereo partly specified) ?
Solution: interval 1

Problem: Band for c1ccc(CNC2C3CC4CCCC(C3)N4[C@H]2C(c2ccccc2)c2ccccc2)cc1 (stereo partly specified) ?
Solution: interval 1

---

molecular target: Substance-P receptor (Homo sapiens, UniProt P25103); test: Tested in vitro for the binding affinity towards NK1 receptor in human IM-9 cells using [125I]-labeled bolton-hunter substance P as ligand
Sequence (P25103 whole entry): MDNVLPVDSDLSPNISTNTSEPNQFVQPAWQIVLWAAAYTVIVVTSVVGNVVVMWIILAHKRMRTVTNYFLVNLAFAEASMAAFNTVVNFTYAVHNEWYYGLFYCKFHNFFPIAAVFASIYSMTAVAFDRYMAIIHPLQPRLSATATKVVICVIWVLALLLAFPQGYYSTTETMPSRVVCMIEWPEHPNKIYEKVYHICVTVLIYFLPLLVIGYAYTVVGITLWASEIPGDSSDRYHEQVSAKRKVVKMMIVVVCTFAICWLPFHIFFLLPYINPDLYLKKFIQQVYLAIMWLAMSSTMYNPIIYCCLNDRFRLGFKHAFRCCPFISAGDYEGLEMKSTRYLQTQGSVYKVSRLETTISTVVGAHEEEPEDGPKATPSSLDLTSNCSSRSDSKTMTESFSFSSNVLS
RECORDED_METRIC: IC50
Note: state the figure and append the unit.

Use the examples below as a reference point.
>>> obs_value("Clc1ccccc1CNC1C2CC3CCC(C2)N3[C@H]1C(c1ccccc1)c1ccccc1 (stereo partly drawn)")
"7.1 nM"
>>> obs_value("COc1ccccc1CNC1C2CC3CCOC(C2)N3[C@H]1C(c1ccccc1)c1ccccc1 (stereo partly drawn)")
"7.2 nM"

# input for lookup
Problem: Please look up its IC50: c1ccc(CNC2C3CC4CCC(C3)N4[C@H]2C(c2ccccc2)c2ccccc2)cc1 (stereo partly drawn)
Solution: 68 nM
